- Assay Info: Volume of distribution at steady state in cynomolgus monkey at 1 mg/kg, iv administered as bolus dose
- Format: ADME, organism-based, Macaca fascicularis
- Test Conditions: in vivo, read-out: Vdss
Readout Kind: Vd (L/kg)

Compound: O=C1CCC(N2Cc3cc(CNC(=O)C(F)(F)c4ccc(Cl)cc4)ccc3C2=O)C(=O)N1 (stereo unspecified)
Readout Kind: Vd
Measured: 1.1

* * *

- Assay Info: Volume of distribution at steady state in CD1 mouse at 2 mg/kg, iv administered as bolus dose
- Assay type: ADME, organism-based
- Test Conditions: in vivo, read-out: Vdss

Compound: O=C1CCC(N2Cc3cc(CNC(=O)C(F)(F)c4ccc(Cl)cc4)ccc3C2=O)C(=O)N1 (stereo unspecified)
Unit Descriptor: L/kg
Vd: 1
